Ref: patent US12102648B2

assay: in vitro; type: in vitro ADME; details: human, Caco-2
Quick rule for you: Papp A→B at 90 min at 1 ×10⁻⁶ cm/s or higher means true (1), lower means false (0).

Evaluate CC(C)(C)C(=O)OCO[C@H]1[C@@H](O)[C@](C#N)(c2ccc3c(N)ncnn23)O[C@@H]1COC(=O)CC1CCCCC1 [Compound 32] : Papp A→B at 90 min at minimum 1 ×10⁻⁶ cm/s?
true (1)

Evaluate CCC(=O)O[C@@H]1[C@@H](COC(C)=O)O[C@@H](n2cnc3c(NC)nc(N)nc32)[C@]1(C)F [Compound 329] : Papp A→B at 90 min at minimum 1 ×10⁻⁶ cm/s?
true (1)

Evaluate CC(C)[C@H](N)C(=O)O[C@H]1[C@@H](OC(=O)[C@@H](N)C(C)C)[C@](C#N)(c2ccc3c(N)ncnn23)O[C@@H]1COC(=O)CC1CCCCC1 [Compound 356] : Papp A→B at 90 min at minimum 1 ×10⁻⁶ cm/s?
false (0)

Evaluate N#C[C@@]1(c2ccc3c(N)ncnn23)O[C@H](COC(=O)CC2CCC(C(F)(F)F)CC2)[C@@H](OC(=O)CC2CCC(C(F)(F)F)CC2)[C@H]1O (stereo partly drawn) [Compound 271] : Papp A→B at 90 min at minimum 1 ×10⁻⁶ cm/s?
false (0)

Evaluate N#C[C@@]1(c2ccc3c(N)ncnn23)O[C@H](COC(=O)CC2(c3ccccc3)CCOCC2)[C@@H](O)[C@H]1O [Compound 274] : Papp A→B at 90 min at minimum 1 ×10⁻⁶ cm/s?
false (0)
